The values you see were collected from paper PMC5655141.

# tested system: AMPylated BiP* FL (Cricetulus griseus, UniProt G3I8R9, T229G/V461F)
# Construct: T229G
# Sequence (G3I8R9 1-641 T229G/V461F): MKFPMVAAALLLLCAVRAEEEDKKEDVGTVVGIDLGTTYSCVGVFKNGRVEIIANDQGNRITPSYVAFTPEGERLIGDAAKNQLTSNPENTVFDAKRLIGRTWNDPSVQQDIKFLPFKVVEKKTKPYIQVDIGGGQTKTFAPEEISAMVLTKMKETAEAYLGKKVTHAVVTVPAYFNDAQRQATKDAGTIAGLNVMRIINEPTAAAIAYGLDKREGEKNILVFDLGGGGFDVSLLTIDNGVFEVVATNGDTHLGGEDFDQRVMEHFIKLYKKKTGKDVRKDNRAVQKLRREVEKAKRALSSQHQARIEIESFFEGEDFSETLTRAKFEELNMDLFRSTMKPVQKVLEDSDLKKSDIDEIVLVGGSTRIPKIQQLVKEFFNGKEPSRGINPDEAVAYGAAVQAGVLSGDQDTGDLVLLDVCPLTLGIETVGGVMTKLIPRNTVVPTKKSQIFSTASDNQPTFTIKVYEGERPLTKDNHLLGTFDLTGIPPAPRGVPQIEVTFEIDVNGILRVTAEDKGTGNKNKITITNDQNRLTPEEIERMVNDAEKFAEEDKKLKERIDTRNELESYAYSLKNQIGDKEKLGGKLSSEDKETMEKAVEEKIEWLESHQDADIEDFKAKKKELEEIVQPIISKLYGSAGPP
# measurement notes: ITC
endpoint name: Kd (nM)

A: Nc1ncnc2c1ncn2[C@@H]1O[C@H](COP(=O)(O)OP(=O)(O)O)[C@@H](O)[C@H]1O
B: Nc1ncnc2c1ncn2[C@@H]1O[C@H](COP(=O)(O)OP(=O)(O)OP(=O)(O)O)[C@@H](O)[C@H]1O
QUERY: Identify the entry with the larger Kd. Options: A and B When you have decided, please share the label of that item.
RESULT: A

###

# tested system: BiP* NBD(1-413) (Cricetulus griseus, UniProt G3I8R9, T229G)
# Construct: T229G
# Sequence (G3I8R9 1-413 T229G): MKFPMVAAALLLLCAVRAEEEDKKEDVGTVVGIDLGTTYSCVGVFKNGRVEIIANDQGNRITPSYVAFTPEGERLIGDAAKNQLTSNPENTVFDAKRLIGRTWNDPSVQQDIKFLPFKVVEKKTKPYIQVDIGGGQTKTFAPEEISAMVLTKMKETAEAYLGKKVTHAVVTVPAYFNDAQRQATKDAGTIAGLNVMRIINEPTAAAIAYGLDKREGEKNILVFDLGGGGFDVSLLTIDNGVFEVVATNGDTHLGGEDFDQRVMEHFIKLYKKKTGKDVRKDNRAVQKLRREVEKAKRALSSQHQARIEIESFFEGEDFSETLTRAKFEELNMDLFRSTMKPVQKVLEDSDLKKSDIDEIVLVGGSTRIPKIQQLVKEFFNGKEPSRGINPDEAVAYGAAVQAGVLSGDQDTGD
# measurement notes: ITC
endpoint name: pKd
Remember the convention: pKd equals -log10 of concentration in molar.

QUERY: I am curious: what pKd value has been reported for Nc1ncnc2c1ncn2[C@@H]1O[C@H](COP(=O)(O)OP(=O)(O)O)[C@@H](O)[C@H]1O [ADP] ?
RESULT: 5.28
